Values from patent US20240043505A1

# STUDY TARGET: Y453F
VALUE TYPE: binding affinity fold change relative to RBD WT (fold)
Express your answer in fold, writing the number without its unit.

Use the examples below as a reference point.
INSERT INTO measurements (binder, observed) VALUES
  ('Nb95 (VHH) VHH: QVQLVESGGGLVQAGGSLRLSCAASGRTFSSYSMGWFRQAQGKEREFVATINGNGRDTYYTNSVKGRFTISRDDATNTVYLQMNSLKPEDTAIYYCAADKDVYYGYTSFPNEYEYWGQGTQVTVSS', -1.31),
  ('Nb105 (VHH) VHH: HVQLVESGGGLVQAGGSLRLSCAVSGRTFSTYGMAWFRQAPGKERDFVATITRSGETTLYADSVKGRFTISRDNAKNTVYLQMNSLKIEDTAVYYCAVRRDSSWGYSRDLFEYDYWGQGTQVTVSS', 1.31),
  ('Nb36 (VHH) VHH: HVQLVESGGGLVQAGGSLTLTCAASGRTFSSETMDMGWFRQAPGKEREFVAADSWNDGSTYYADSVKGRFTISRDSAKNTLYLQMNSLKPEDTAVYYCAAETYSIYEKDDSWGYWGQGTQVTVSS', 1.32);

Field: next binder
Supply measured binding affinity fold change relative to RBD WT of Nb34 (VHH) VHH: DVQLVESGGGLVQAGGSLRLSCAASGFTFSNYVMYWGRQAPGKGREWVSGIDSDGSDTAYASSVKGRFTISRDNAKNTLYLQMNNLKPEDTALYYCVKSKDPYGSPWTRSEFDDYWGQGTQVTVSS in your reply.
1.2
